Tested on: HEK-293T
Experiment: Multiplex assay against HEK293T;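 on Population Tubulin-Different-Phenotype (%): share of the cells with healthy nuclei that show this phenotype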
Assay type: toxicity, cell-based
Settings: human, 12 h, 1 µM, compound concentration 1 uM, replicate 2
// NB: equality with 20% counts as no (0); only Population Tubulin-Different-Phenotype (%) strictly below is yes (1)

Example cases with answers are listed next.
Nc1ccc(C(=O)Nc2cccc(-c3nc(N4CCOCC4)c4oc5ncccc5c4n3)c2)cn1    no (0)
CCn1c(-c2nonc2N)nc2cnc(Oc3cccc(NC(=O)c4ccc(OCCN5CCOCC5)cc4)c3)cc21 [GSK-269962A]    no (0)
CCOc1cc(N2CCC(O)CC2)ccc1Nc1ncc2c(n1)N(C1CCCC1)CCC(=O)N2C    yes (1)
Cc1cc2c(cc1N1C(=O)c3cccc4c(CCCO)ccc(c34)C1=O)n(C)c(=O)n2C    no (0)

Data request: Answer whether the compound `CN(C)CCOc1ccc(-c2nc(-c3ccncc3)c(-c3ccc4c(c3)CC/C4=N\O)[nH]2)cc1` has Population Tubulin-Different-Phenotype (%) strictly less than 20%
Data returned: no (0)

Data request: Answer whether the compound `CCCn1c(=O)c2[nH]c(C34CC5CC(CC3C5)C4)nc2n(CCC)c1=O` has Population Tubulin-Different-Phenotype (%) strictly less than 20%
Data returned: yes (1)

Data request: Answer whether the compound `COc1cc2c(Nc3ccc(NC(=O)c4ccccc4)cc3)ncnc2cc1OCCCN1CCOCC1` has Population Tubulin-Different-Phenotype (%) strictly less than 20%
Data returned: no (0)

Data request: Answer whether the compound `Cl.Cl.Nc1ncnc2c1c(-c1cccc(OCc3ccccc3)c1)cn2[C@H]1C[C@@H](CN2CCC2)C1` has Population Tubulin-Different-Phenotype (%) strictly less than 20%
Data returned: no (0)

Data request: Answer whether the compound `CC(C)(C)c1cnc(CSc2cnc(NC(=O)C3CCNCC3)s2)o1` has Population Tubulin-Different-Phenotype (%) strictly less than 20%
Data returned: yes (1)

Data request: Answer whether the compound `CC(C)N1CCC(C)(C)c2cc(C#Cc3ccc(C(=O)O)cc3)ccc21` has Population Tubulin-Different-Phenotype (%) strictly less than 20%
Data returned: yes (1)

Data request: Answer whether the compound CC(C)Oc1ccc(C(=O)N[C@H](CNC(=O)CN(C)C)Cc2ccc(-c3cn4cccc([C@H](C)O)c4n3)cc2)cc1Cl [GSK-923295A] has Population Tubulin-Different-Phenotype (%) strictly less than 20%
Data returned: no (0)

Data request: Answer whether the compound `COc1ccc(NS(=O)(=O)c2sc3ccc(Cl)cc3c2C)cc1N1CCNCC1.Cl` has Population Tubulin-Different-Phenotype (%) strictly less than 20%
Data returned: no (0)

Data request: Answer whether the compound `N#Cc1cnc(Nc2cc(NC[C@H]3CNCCO3)c(C(F)(F)F)cn2)cn1` has Population Tubulin-Different-Phenotype (%) strictly less than 20%
Data returned: yes (1)

Data request: Answer whether the compound CCC(=O)O[C@]1(C(=O)SCF)[C@H](C)C[C@H]2[C@@H]3C[C@H](F)C4=CC(=O)C=C[C@]4(C)[C@@]3(F)[C@@H](O)C[C@@]21C [FLUTICASONE PROPIONATE] has Population Tubulin-Different-Phenotype (%) strictly less than 20%
Data returned: yes (1)

Data request: Answer whether the compound `CNC(=O)c1cc(Oc2ccc(NC(=O)Nc3cc(C(C)(C)C)nn3-c3ccc4ncccc4c3)c(F)c2)ccn1` has Population Tubulin-Different-Phenotype (%) strictly less than 20%
Data returned: yes (1)

Data request: Answer whether the compound `CC(=O)c1cc(-c2cc(C(=O)NC3CC3)ccc2C)c2ncccn12` has Population Tubulin-Different-Phenotype (%) strictly less than 20%
Data returned: no (0)

Data request: Answer whether the compound `Cl.Cl.NC1(c2ccc(-c3nc4ccn5c(=O)[nH]nc5c4cc3-c3ccccc3)cc2)CCC1` has Population Tubulin-Different-Phenotype (%) strictly less than 20%
Data returned: no (0)

Data request: Answer whether the compound `Nc1nc2c(c(N3CCNCC3)n1)CCC1=C2[C@@H]2CCCC[C@@H]2O1` has Population Tubulin-Different-Phenotype (%) strictly less than 20%
Data returned: no (0)

----------
System: Fibroblast
Test: Multiplex assay against human fibroblast
Type: toxicity, cell-based
Conditions: 24 h, 1 µM, compound concentration 1 uM, replicate 2
// NB: equality with 5% counts as not satisfied; only Population Pyknosed Nuclei (%) strictly below is satisfied

CN(C)CCOc1ccc(-c2nc(-c3ccncc3)c(-c3ccc4c(c3)CC/C4=N\O)[nH]2)cc1    not satisfied

Data request: Answer whether the molecule Cc1nc(Cc2cccc(C(F)(F)F)c2)sc1-c1ccc(C(N)=O)nc1 [TP-024n] has Population Pyknosed Nuclei (%) strictly less than 5%
Data returned: satisfied

Data request: Answer whether the molecule CC(C)Oc1ccc(C(=O)N[C@H](CNC(=O)CN(C)C)Cc2ccc(-c3cn4cccc([C@H](C)O)c4n3)cc2)cc1Cl [GSK-923295A] has Population Pyknosed Nuclei (%) strictly less than 5%
Data returned: not satisfied

Data request: Answer whether the molecule `c1ccc2oc(-c3csc(C4CCN(Cc5nc6ncccc6[nH]5)CC4)n3)cc2c1` has Population Pyknosed Nuclei (%) strictly less than 5%
Data returned: not satisfied

Data request: Answer whether the molecule `CCOc1cc(N2CCC(O)CC2)ccc1Nc1ncc2c(n1)N(C1CCCC1)CCC(=O)N2C` has Population Pyknosed Nuclei (%) strictly less than 5%
Data returned: not satisfied

----------
Overview of reported Growth Rate across a group of molecules:
Test system: Fibroblast
Test: Incucyte cell viability with human fibroblast; further: filed as whole numbers so only -1 and 0 and 1 occur
Type: toxicity, cell-based
Settings: 6 h, 10 µM, compound concentration 10 uM, replicate number 1, timepoint 6 hours
Answer with the value's number alone.

Worked cases, answers included:
Nc1ccc(C(=O)Nc2cccc(-c3nc(N4CCOCC4)c4oc5ncccc5c4n3)c2)cn1    0
CCN1CCN(Cc2ccc(NC(=O)c3ccc(C)c(Oc4ccnc5[nH]ccc45)c3)cc2C(F)(F)F)CC1.Cl.Cl.Cl.O    1

# ---- query molecule ----
Data request: Retrieve Growth Rate measured for C[C@@H]1CCc2ncc(F)cc2[C@H]2CCCN2c2ccn3ncc(c3n2)C(=O)N1 [SELITRECTINIB] and print it.
Data returned: 1

----------
Test system: HEK-293T
Experiment: Multiplex assay against HEK293T
Type: toxicity, cell-based
Conditions: human, 24 h, 1 µM, compound concentration 1 uM, replicate 1
// NB: equality with 4% counts as F; only Population Membrane Permeable-Phenotype (%) strictly below is T

Data request: Answer whether the molecule `CNc1oc(-c2cccc3ccccc23)nc1C#N` has Population Membrane Permeable-Phenotype (%) strictly less than 4%
Data returned: F

Data request: Answer whether the molecule `CCCn1c(=O)c2[nH]c(C34CC5CC(CC3C5)C4)nc2n(CCC)c1=O` has Population Membrane Permeable-Phenotype (%) strictly less than 4%
Data returned: T

Data request: Answer whether the molecule `Cc1cn(-c2cc(NC(=O)c3ccc4c(c3)CN(c3cncnc3)C[C@@H]4C)cc(C(F)(F)F)c2)cn1` has Population Membrane Permeable-Phenotype (%) strictly less than 4%
Data returned: F

Data request: Answer whether the molecule `CNC(=O)c1nn(C)c2c1C(C)(C)Cc1cnc(Nc3ccc(N4CCN(C)CC4)cc3)nc1-2` has Population Membrane Permeable-Phenotype (%) strictly less than 4%
Data returned: F

Data request: Answer whether the molecule CCn1c(-c2nonc2N)nc2cnc(Oc3cccc(NC(=O)c4ccc(OCCN5CCOCC5)cc4)c3)cc21 [GSK-269962A] has Population Membrane Permeable-Phenotype (%) strictly less than 4%
Data returned: T

Data request: Answer whether the molecule CCC(=O)O[C@]1(C(=O)SCF)[C@H](C)C[C@H]2[C@@H]3C[C@H](F)C4=CC(=O)C=C[C@]4(C)[C@@]3(F)[C@@H](O)C[C@@]21C [FLUTICASONE PROPIONATE] has Population Membrane Permeable-Phenotype (%) strictly less than 4%
Data returned: F

----------
Tested on: HEK-293T
Assay: Multiplex assay against HEK293T
Assay type: toxicity, cell-based
Details: human, 24 h, 10 µM, compound concentration 10 uM, replicate 1
Entry flag: 1 if Total Cell Count reaches 600; 0 if it does not.

Example cases with answers are listed next.
Cc1cc2c(cc1N1C(=O)c3cccc4c(CCCO)ccc(c34)C1=O)n(C)c(=O)n2C    0
N#Cc1cnc(Nc2cc(NC[C@H]3CNCCO3)c(C(F)(F)F)cn2)cn1    1
CCCn1c(=O)c2[nH]c(C34CC5CC(CC3C5)C4)nc2n(CCC)c1=O    0
CN(C)C/C=C/C(=O)Nc1cc2c(Nc3ccc(F)c(Cl)c3)ncnc2cc1O[C@H]1CCOC1.O=C(O)/C=C\C(=O)O.O=C(O)/C=C\C(=O)O [AFATINIB DIMALEATE]    1
CC(=O)c1cc(-c2cc(C(=O)NC3CC3)ccc2C)c2ncccn12    0
CC(C)N1CCC(C)(C)c2cc(C#Cc3ccc(C(=O)O)cc3)ccc21    0
COc1ccc(NS(=O)(=O)c2sc3ccc(Cl)cc3c2C)cc1N1CCNCC1.Cl    0
CCC(=O)O[C@]1(C(=O)SCF)[C@H](C)C[C@H]2[C@@H]3C[C@H](F)C4=CC(=O)C=C[C@]4(C)[C@@]3(F)[C@@H](O)C[C@@]21C [FLUTICASONE PROPIONATE]    0
Cl.Cl.NC1(c2ccc(-c3nc4ccn5c(=O)[nH]nc5c4cc3-c3ccccc3)cc2)CCC1    0
CN(C)CCOc1ccc(-c2nc(-c3ccncc3)c(-c3ccc4c(c3)CC/C4=N\O)[nH]2)cc1    1

Data request: Test whether the compound `CNc1oc(-c2cccc3ccccc23)nc1C#N` records Total Cell Count of 600 or higher.
Data returned: 1

Data request: Test whether the compound `CC(C)(C)c1cnc(CSc2cnc(NC(=O)C3CCNCC3)s2)o1` records Total Cell Count of 600 or higher.
Data returned: 0

Data request: Test whether the compound `O=C(O)c1ccc2cc(-c3ccc(O)c(C45CC6CC(CC(C6)C4)C5)c3)ccc2c1` records Total Cell Count of 600 or higher.
Data returned: 0
